Taken from the kinase profiling compilation of Christmann-Franck et al. (2016).

target_system: TXK (human) (UniProt P42681)
Sequence (P42681 whole entry, looked up): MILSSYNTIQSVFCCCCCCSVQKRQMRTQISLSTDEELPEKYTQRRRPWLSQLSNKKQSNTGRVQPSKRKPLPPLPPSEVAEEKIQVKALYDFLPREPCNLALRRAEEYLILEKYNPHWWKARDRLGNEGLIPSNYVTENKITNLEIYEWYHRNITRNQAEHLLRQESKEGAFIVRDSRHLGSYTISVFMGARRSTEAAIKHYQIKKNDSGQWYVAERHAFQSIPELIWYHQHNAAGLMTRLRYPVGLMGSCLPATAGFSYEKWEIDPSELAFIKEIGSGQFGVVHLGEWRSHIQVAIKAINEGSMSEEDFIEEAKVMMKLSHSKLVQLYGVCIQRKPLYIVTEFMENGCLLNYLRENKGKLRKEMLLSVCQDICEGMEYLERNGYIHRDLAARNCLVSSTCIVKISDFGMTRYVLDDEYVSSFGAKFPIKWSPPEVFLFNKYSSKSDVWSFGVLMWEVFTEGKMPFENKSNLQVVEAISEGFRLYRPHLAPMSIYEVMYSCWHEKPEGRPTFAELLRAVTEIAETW
procedure_text: radiometric filter-binding kinase assay, Kinase HotSpot
condition_set: compound 0.5 µM; ATP 10 µM
value_kind: residual activity (%)
Give just the numeric value; % need not be written.

Here is how some compounds turned out for residual activity.
smiles_representation	target_system	residual activity [%]
CCN1/C(=C/C(C)=O)Sc2ccc(OC)cc21	TXK (human) (UniProt P42681)	100
COc1cc2ncnc(Nc3ccc(F)c(Cl)c3)c2cc1OCCCN1CCOCC1	TXK (human) (UniProt P42681)	83.2

Now let's try a different one.
Give the measured residual activity of Clc1ccc(Nc2nnc(Cc3ccncc3)c3ccccc23)cc1 .
110
